System: HL-60(TB) leukemia
Assay: NCI tumour cell line growth inhibition, 48 h
measured.attribute: TGI

Look over these answered cases.
Cn1cc2ccccc2c1-c1nc(F)nc(OCC(=O)[C@H]2CCC3[C@@H]4CCC5=CC(=O)CC[C@]5(C)C4[C@@H](O)C[C@@]32C)n1 (some centres not stated)    25.3 µM
CC12CCC(Br)C(C)(C)C1CC=C1C(=O)OCC1O2 (configuration not stated)    > 100 µM
COI1NC(=O)c2ccccc21    > 100 µM
N#Cc1ccc(-n2c3ccccc3c3ccc4c(c32)C(=O)C=CC4=O)cc1    > 100 µM
Cc1ncc(C(=O)Nc2ccc(CN3CCN(C)CC3)c(C(F)(F)F)c2)cc1C#Cc1cnc(N)cc1C#N    2.85 µM

**Query** Query: TGI; subject: "C#CCOc1cccc(Nc2ncnc3cc(NC(=O)CCl)ccc23)c1"
**Result** 12.5 µM

**Query** Query: TGI; subject: "CC(C)(C)c1cc(O)ccc1O"
**Result** 26.7 µM

**Query** Query: TGI; subject: "O=C(O)CCc1nn2c(nc1=O)sc1ccc3ccccc3c12"
**Result** > 100 µM

// provenance: PubChem BioAssay (NCI)
